- procedure-details: Half life of compound in 0.5 M phosphate buffer at pH 6.5 at 25 degC by LC/MS analysis
- Assay type: physicochemical
- study-conditions: phosphate buffer
parameter-measured: half-life

* N=c1c[n+](N2CCOCC2)[n-]o1 | < 24 h

Let us examine a further case.
In plain terms, CC1(C)CC([n+]2cc([NH-])on2)CC(C)(C)N1O.Cl has a documented half-life of < 24 h

---

- procedure-details: Half life of compound in 0.5 M phosphate buffer at pH 7.4 at 25 degC by LC/MS analysis
- Type: physicochemical
- study-conditions: phosphate buffer
parameter-measured: half-life

• CC1(C)CC([n+]2cc([NH-])on2)CC(C)(C)N1O.Cl = < 24 h

Now consider a different compound.
Lab note: N=c1c[n+](N2CCOCC2)[n-]o1 [LINSIDOMINE] gave half-life of < 24 h

# credit: ChEMBL document CHEMBL3763082
